Ref: patent US20050245438A1

Provide the reported pIC50 of each item.
biological target: T1, cloned human SRIF receptor SSTR4 (human, UniProt P31391 1-388); assay: radioligand displacement (125I-[Leu8,D-Trp22,Tyr25]SRIF-28), membrane pellet sections
T1 construct: whole, on cells; assayed as cryostat sections of membrane pellets of the transfected cells; also called hSSTR4
T1 sequence (P31391 whole entry): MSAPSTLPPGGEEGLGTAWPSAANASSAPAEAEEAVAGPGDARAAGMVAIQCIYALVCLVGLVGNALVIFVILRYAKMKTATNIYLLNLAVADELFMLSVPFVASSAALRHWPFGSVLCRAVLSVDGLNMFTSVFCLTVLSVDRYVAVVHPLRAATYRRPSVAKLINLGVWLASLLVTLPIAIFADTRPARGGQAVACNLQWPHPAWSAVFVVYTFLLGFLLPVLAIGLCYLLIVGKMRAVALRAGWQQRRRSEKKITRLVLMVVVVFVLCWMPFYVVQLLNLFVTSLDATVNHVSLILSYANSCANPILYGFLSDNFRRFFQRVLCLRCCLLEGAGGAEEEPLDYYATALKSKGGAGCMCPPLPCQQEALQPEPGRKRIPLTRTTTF
Numbered stars: 1 amine (or outer) side, 2 acyl side, 3 side chain; on linkers, the order of the positions; unused ones are H or OH. Bridge positions count the residues as written; N and C are the ends. Square brackets hold non-standard residues; d marks the D form. Ends that are not written are not given here. * marks the point of attachment. (2S,3R)βMe2Nal = L-threo-(2S,3R)-β-methyl-2-naphthylalanine, (2S,3R)-2-amino-3-(naphthalen-2-yl)butanoic acid, C[C@H](c1ccc2ccccc2c1)[C@H](N[*:1])C(=O)[*:2]; Phe(4-CH2NH2) = NCc1ccc(C[C@H](N)C(=O)O)cc1; Tyr(127I) = tyrosine iodinated with ^127I; Phe(4-NH2) = Nc1ccc(C[C@H](N)C(=O)O)cc1; Carbamoyl = NC(=O)*
Bear in mind: pIC50 is minus log10 of a mol/L concentration; give just that figure.

Incoming: Requested field: pIC50. Item: H-YCFA[dW]KTFC-OH (disulfide 2-9, synthetic cyclic nonapeptide; also called Peptide No. 14) [(cyclo)H-Tyr-Cys-Phe-Ala-D-Trp-Lys-Thr-Phe-Cys-OH]
Outgoing: 8.96

Incoming: Requested field: pIC50. Item: Carbamoyl-YCF[Phe(4-CH2NH2)]WKTFC-OH (disulfide 2-9, synthetic cyclic nonapeptide; also called Peptide No. 15A) [(cyclo)Cbm-Tyr-Cys-Phe-Amp-Trp-Lys-Thr-Phe-Cys-OH]
Outgoing: 8.49

Incoming: Requested field: pIC50. Item: H-CFAWKTFC-OH (disulfide 1-8; SMILES C[C@@H]1NC(=O)[C@H](Cc2ccccc2)NC(=O)[C@@H](N)CSSC[C@@H](C(=O)O)NC(=O)[C@H](Cc2ccccc2)NC(=O)[C@H]([C@@H](C)O)NC(=O)[C@H](CCCCN)NC(=O)[C@H](Cc2c[nH]c3ccccc23)NC1=O, synthetic cyclic octapeptide; also called Peptide No. 12) [des-AA^1,2,4,5,12,13-[Ala^7]SRIF, (cyclo)H-Cys-Phe-Ala-Trp-Lys-Thr-Phe-Cys-OH]
Outgoing: 9.08

Incoming: Requested field: pIC50. Item: Carbamoyl-CF[Phe(4-NH2)][dW]KTFC-OH (disulfide 1-8; SMILES C[C@@H](O)[C@@H]1NC(=O)[C@H](CCCCN)NC(=O)[C@@H](Cc2c[nH]c3ccccc23)NC(=O)[C@H](Cc2ccc(N)cc2)NC(=O)[C@H](Cc2ccccc2)NC(=O)[C@@H](NC(N)=O)CSSC[C@@H](C(=O)O)NC(=O)[C@H](Cc2ccccc2)NC1=O, synthetic cyclic octapeptide; also called Peptide No. 4) [(cyclo)Cbm-Cys-Phe-4Aph-D-Trp-Lys-Thr-Phe-Cys-OH]
Outgoing: 8.96

Incoming: Requested field: pIC50. Item: Carbamoyl-CF[Phe(4-NH2)]WKTFC-OH (disulfide 1-8, synthetic cyclic octapeptide; also called Peptide No. 3) [(cyclo)Cbm-Cys-Phe-4Aph-Trp-Lys-Thr-Phe-Cys-OH]
Outgoing: 8.84

Incoming: Requested field: pIC50. Item: [Tyr(127I)]CFAWKTFC (disulfide 2-9, also called Peptide No. 13A; the I-Tyr^2 analog) [Peptide No. 13 iodinated with ^127I]
Outgoing: 8.46

Incoming: Requested field: pIC50. Item: Carbamoyl-CF[Phe(4-NH2)][dW]KTYC-OH (disulfide 1-8, synthetic cyclic octapeptide; also called Peptide No. 10A) [(cyclo)Cbm-Cys-Phe-4Aph-D-Trp-Lys-Thr-Tyr-Cys-OH]
Outgoing: 8.37

Incoming: Requested field: pIC50. Item: Carbamoyl-YCF[Phe(4-NH2)]WKTFC-OH (disulfide 2-9, synthetic cyclic nonapeptide; also called Peptide No. 8) [(cyclo)Cbm-Tyr-Cys-Phe-4Aph-Trp-Lys-Thr-Phe-Cys-OH]
Outgoing: 8.92

Incoming: Requested field: pIC50. Item: H-YCF[Phe(4-NH2)]WKTFC-OH (disulfide 2-9, synthetic cyclic nonapeptide; also called Peptide No. 6) [(cyclo)H-Tyr-Cys-Phe-4Aph-Trp-Lys-Thr-Phe-Cys-OH]
Outgoing: 8.72

Incoming: Requested field: pIC50. Item: H-[dC]FY[(2S,3R)βMe2Nal]KTFC-OH (disulfide 1-8; SMILES C[C@H](c1ccc2ccccc2c1)[C@@H]1NC(=O)[C@H](Cc2ccc(O)cc2)NC(=O)[C@H](Cc2ccccc2)NC(=O)[C@H](N)CSSC[C@@H](C(=O)O)NC(=O)[C@H](Cc2ccccc2)NC(=O)[C@H]([C@@H](C)O)NC(=O)[C@H](CCCCN)NC1=O, also called Peptide No. 16A; Peptide 16A) [(cyclo)H-D-Cys-Phe-Tyr-threo-(2S,3R)C^βMe-2Nal-Lys-Thr-Phe-Cys-OH]
Outgoing: 8.46
